Target: T1, GV27 peptide (ER-α36 c-terminal 27 aa) (human)
T1 construct: also called 27 aa peptide (F domain); 27-amino acid peptide derived from the F domain of ER-α36
T1 peptide: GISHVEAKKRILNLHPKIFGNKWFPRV
Test: Biacore; table head says human ER-α36, analyte taken as the GV27 peptide of Example 5
quantity: koff (s⁻¹)

binder	value units	measured result
SNGHZD (C3L + C6H) (antibody, human IgG1, kappa, V domains shown, Humanized antibody, human IgG1/kappa; also called humanized SNGmB1 variant C3L + C6H) VH: QVQLVQSGAEVKKPGASVKVSCKASGYTFTSHNMHWVRQAPGQGLEWIGAIHPVNGDTAYNQKFKGKATLTVDKSTSTAYMELSSLRSEDTAVYYCAREGYGSVDYWGQGTLVTVSS VL: ETTVTQSPAFMSATPGDKVNISCITSTDIDDDMNWYQQKPGEAPILIISEGNTLRPGIPPRFSGSGYGTDFTLTINNIESEDAAYYFCLQSDNLPLTFGQGTKLEIKR	s⁻¹	0.00036
SNGHZD (C2L + C6H) (antibody, human IgG1, kappa, V domains shown, Humanized antibody, human IgG1/kappa; also called humanized SNGmB1 variant C2L + C6H) VH: QVQLVQSGAEVKKPGASVKVSCKASGYTFTSHNMHWVRQAPGQGLEWIGAIHPVNGDTAYNQKFKGKATLTVDKSTSTAYMELSSLRSEDTAVYYCAREGYGSVDYWGQGTLVTVSS VL: ETTVTQSPAFMSATPGDKVNISCITSTDIDDDMNWYQQKPGEAAILIISEGNTLRPGIPPRFSSSGYGTDFTLTINNIESEDAAYYFCLQSDNLPLTFGQGTKLEIKR	s⁻¹	0.000398
SNGHZD (C1L + C6H) (antibody, human IgG1, kappa, V domains shown, Humanized antibody, human IgG1/kappa; also called humanized SNGmB1 variant C1L + C6H) VH: QVQLVQSGAEVKKPGASVKVSCKASGYTFTSHNMHWVRQAPGQGLEWIGAIHPVNGDTAYNQKFKGKATLTVDKSTSTAYMELSSLRSEDTAVYYCAREGYGSVDYWGQGTLVTVSS VL: ETTVTQSPAFMSATPGDKVNISCITSTDIDDDMNWYQQKPGEAPILIISEGNTLRPGIPPRFSSSGYGTDFTLTINNIESEDAAYYFCLQSDNLPLTFGQGTKLEIKR	s⁻¹	0.000302
SNGHZD (C2L + C5H) (antibody, human IgG1, kappa, V domains shown, Humanized antibody, human IgG1/kappa; also called humanized SNGmB1 variant C2L + C5H) VH: QVQLVQSGAEVKKPGASVKVSCKASGYTFTSHNMHWVRQAPGQGLEWIGAIHPVNGDTAYNQKFKGKATLTVDKSTSTAYLELSSLRSEDTAVYYCAREGYGSVDYWGQGTLVTVSS VL: ETTVTQSPAFMSATPGDKVNISCITSTDIDDDMNWYQQKPGEAAILIISEGNTLRPGIPPRFSSSGYGTDFTLTINNIESEDAAYYFCLQSDNLPLTFGQGTKLEIKR	s⁻¹	0.000488
SNGHZD (C1L + C5H) (antibody, human IgG1, kappa, V domains shown, Humanized antibody, human IgG1/kappa, expressed in 293E6 cells; also called humanized SNGmB1 variant C1L + C5H) VH: QVQLVQSGAEVKKPGASVKVSCKASGYTFTSHNMHWVRQAPGQGLEWIGAIHPVNGDTAYNQKFKGKATLTVDKSTSTAYLELSSLRSEDTAVYYCAREGYGSVDYWGQGTLVTVSS VL: ETTVTQSPAFMSATPGDKVNISCITSTDIDDDMNWYQQKPGEAPILIISEGNTLRPGIPPRFSSSGYGTDFTLTINNIESEDAAYYFCLQSDNLPLTFGQGTKLEIKR	s⁻¹	0.000122
SNGHZD (C3L + C5H) (antibody, human IgG1, kappa, V domains shown, Humanized antibody, human IgG1/kappa; also called humanized SNGmB1 variant C3L + C5H) VH: QVQLVQSGAEVKKPGASVKVSCKASGYTFTSHNMHWVRQAPGQGLEWIGAIHPVNGDTAYNQKFKGKATLTVDKSTSTAYLELSSLRSEDTAVYYCAREGYGSVDYWGQGTLVTVSS VL: ETTVTQSPAFMSATPGDKVNISCITSTDIDDDMNWYQQKPGEAPILIISEGNTLRPGIPPRFSGSGYGTDFTLTINNIESEDAAYYFCLQSDNLPLTFGQGTKLEIKR	s⁻¹	0.000356
